Test system: U251 (glioma) cells
Experiment: Anti-cancer screen (MTT), U251
Type: cell-based
Conditions: Homo sapiens, U-251; U251, 48 hours, MTT; read-out: Cell growth inhibition U251 (Glioma) LC50
Experimental: Experimental drugs were screened for anti-cancer activity in three cell lines using five concentrations for each compound. The cell lines —HCT 116 (colon), NCIH460 (lung) and U251 (glioma) were maintained in DMEM containing 10% fetal bovine serum. 96-well microtiter plates are inoculated with cells in 100 μL of cell suspension (5×10^4 cells/mL) for 24 hours at 37° C., 5% CO2, 95% air and 100% relative humidity. […]
outcome-measure: LC50 (concentration giving 50% net cell kill relative to the time-zero cell count) (µM)

| compound | result-units | modifier | quantitative-result |
| --- | --- | --- | --- |
| COc1ccc(/C=C(/C(=O)NCc2ccc(C(=O)Nc3ccccc3N)cc2)c2ccc(F)cc2)cc1 [Compound 11] | µM | = | 86 |
| CSc1ccc(/C=C(/C(=O)NCc2ccc(C(=O)Nc3ccccc3N)cc2)c2ccc(C(F)(F)F)cc2)cc1 [Compound 21] | µM | = | 96 |
| COc1ccc(/C=C(/C(=O)NCc2ccc(C(=O)Nc3ccccc3N)cc2)c2cccc(F)c2)cc1OC [Compound 32] | µM | > | 100 |
| CSc1ccc(/C=C(/C(=O)NCc2ccc(C(=O)Nc3ccccc3N)cc2)c2ccccc2Cl)cc1 [Compound 23] | µM | > | 100 |
| Nc1ccccc1NC(=O)c1ccc(CNC(=O)/C(=C/c2ccc(F)c(C(F)(F)F)c2)c2ccc(C(F)(F)F)cc2)cc1 [Compound 4] | µM | > | 100 |
| COC(=O)c1ccc(/C=C(/C(=O)NCc2ccc(C(=O)Nc3ccccc3N)cc2)c2ccccc2F)cc1 [Compound 34] | µM | = | 65 |
| CSc1ccc(/C=C(/C(=O)NCc2ccc(C(=O)NO)cc2)c2ccc(C)cc2)cc1 [Compound 58] | µM | = | 80 |

###

Tested on: HCT 116 (colon) cells
Assay: Anti-cancer screen (MTT), HCT 116
Format: cell-based
Details: Homo sapiens, HCT-116; HCT116, 48 hours, MTT; read-out: Cell growth inhibition HCT116 (Colon) LC50
Kindly apply the following: 1 if CC50 is less than 80 µM, 0 in every other case.

| molecule | label |
| --- | --- |
| COc1ccc(/C(=C\c2ccc(SC)cc2)C(=O)NCc2ccc(C(=O)NO)cc2)cc1 [Compound 57] | 1 |
| CSc1ccc(/C=C(/C(=O)NCc2ccc(C(=O)NO)cc2)c2ccc(C)cc2)cc1 [Compound 58] | 1 |
| COc1ccc(/C=C(/C(=O)NCc2ccc(C(=O)Nc3ccccc3N)cc2)c2ccccc2)c(OC)c1 [Compound 39] | 0 |
| O=C(NCc1ccc(C(=O)NO)cc1)/C(=C/c1ccc(F)cc1)c1ccc(C(F)(F)F)cc1 [Compound 50] | 0 |
| Nc1ccccc1NC(=O)c1ccc(CNC(=O)/C(=C/c2ccncc2)c2ccc(F)cc2)cc1 [Compound 15] | 0 |
| COc1ccc(/C=C(/C(=O)NCc2ccc(C(=O)Nc3ccccc3N)cc2)c2ccccc2)cc1OC [Compound 31] | 0 |

###

Tested on: HCT 116 (colon) cells
Test: Anti-cancer screen (MTT), HCT 116
Type: cell-based
Settings: Homo sapiens, HCT-116; HCT116, 48 hours, MTT; read-out: Cell growth inhibition HCT116 (Colon) LC50
Experimental: Experimental drugs were screened for anti-cancer activity in three cell lines using five concentrations for each compound. The cell lines —HCT 116 (colon), NCIH460 (lung) and U251 (glioma) were maintained in DMEM containing 10% fetal bovine serum. 96-well microtiter plates are inoculated with cells in 100 μL of cell suspension (5×10^4 cells/mL) for 24 hours at 37° C., 5% CO2, 95% air and 100% relative humidity. […]

| compound | result-units | modifier | CC50 |
| --- | --- | --- | --- |
| Nc1ccccc1NC(=O)c1ccc(CNC(=O)/C(=C/c2ccccc2F)c2ccc(Cl)cc2)cc1 [Compound 3] | µM | = | 100 |
| COc1cc(/C=C(/C(=O)NCc2ccc(C(=O)NO)cc2)c2ccc(F)cc2)ccc1F [Compound 60] | µM | = | 81 |
| COc1cc(/C=C(/C(=O)NCc2ccc(C(=O)Nc3ccccc3N)cc2)c2ccc(F)cc2)cc(OC)c1OC [Compound 8] | µM | > | 100 |
| CSc1ccc(/C=C(/C(=O)NCc2ccc(/C=C/C(=O)NO)cc2)c2ccc(F)cc2)cc1 [Compound 76] | µM | > | 100 |
| CSc1ccc(/C=C(/C(=O)NCc2ccc(C(=O)Nc3ccccc3N)cc2)c2ccc(F)cc2)cc1 [Compound 6] | µM | = | 95.8 |
| COc1ccc(/C=C(/C(=O)NCc2ccc(C(=O)Nc3ccccc3N)cc2)c2ccccc2)cc1 [Compound 2] | µM | > | 100 |
| COC(=O)c1ccc(/C=C(/C(=O)NCc2ccc(C(=O)Nc3ccccc3N)cc2)c2cccs2)cc1 [Compound 36] | µM | > | 100 |
| COC(=O)c1ccc(/C=C(/C(=O)NCc2ccc(C(=O)Nc3ccccc3N)cc2)c2ccc(F)c(F)c2)cc1 [Compound 38] | µM | > | 100 |
| O=C(CCCCCNC(=O)/C(=C/c1ccccc1)c1ccccc1)NO [Compound 88] | µM | > | 100 |
| Nc1ccccc1NC(=O)c1ccc(CNC(=O)/C(=C/c2ccccc2)c2ccccc2)cc1 [Compound 12] | µM | = | 76.2 |
| Nc1ccccc1NC(=O)c1ccc(CNC(=O)/C(=C/c2c(F)cc(F)cc2F)c2ccc(F)cc2)cc1 [Compound 13] | µM | = | 90 |
| COc1ccc(/C=C(/C(=O)NCc2ccc(/C=C/C(=O)NO)cc2)c2ccc(F)cc2)cc1OC [Compound 77] | µM | = | 50 |
| CSc1ccc(/C=C(/C(=O)NCc2ccc(C(=O)Nc3ccccc3N)cc2)c2ccccc2F)cc1 [Compound 24] | µM | > | 100 |
| COc1ccc(/C=C(/C(=O)NCc2ccc(C(=O)NO)cc2)c2ccc(C)cc2)cc1OC [Compound 62] | µM | > | 100 |
| Nc1ccccc1NC(=O)c1ccc(CNC(=O)/C(=C/c2ccc(F)c(C(F)(F)F)c2)c2ccc([N+](=O)[O-])cc2)cc1 [Compound 5] | µM | > | 100 |
| CSc1ccc(/C=C(/C(=O)NCc2ccc(C(=O)NO)cc2)c2ccsc2)cc1 [Compound 59] | µM | = | 60 |
